SYSTEM_NAME: CYP2C9 (Homo sapiens, UniProt P11712)
Sequence (P11712 whole entry): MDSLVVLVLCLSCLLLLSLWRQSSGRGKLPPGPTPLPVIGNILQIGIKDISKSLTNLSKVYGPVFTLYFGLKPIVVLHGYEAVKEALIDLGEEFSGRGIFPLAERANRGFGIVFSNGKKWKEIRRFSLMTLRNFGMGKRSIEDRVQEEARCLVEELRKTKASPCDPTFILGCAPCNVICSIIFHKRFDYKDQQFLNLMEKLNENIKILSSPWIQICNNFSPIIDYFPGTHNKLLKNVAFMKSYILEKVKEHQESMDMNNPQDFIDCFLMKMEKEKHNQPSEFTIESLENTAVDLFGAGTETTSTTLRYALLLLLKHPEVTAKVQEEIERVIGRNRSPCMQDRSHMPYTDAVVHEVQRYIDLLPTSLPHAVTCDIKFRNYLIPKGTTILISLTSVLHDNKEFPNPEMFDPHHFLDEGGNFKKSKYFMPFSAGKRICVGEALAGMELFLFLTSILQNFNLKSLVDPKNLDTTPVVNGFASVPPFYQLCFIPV
ASSAY_TEXT: Inhibition of CYP2C9 in human liver microsomes assessed as enzyme-mediated metabolite formation at 30 uM using diclofenac as substrate preincubated for 20 mins followed by substrate addition measured after 30 mins in presence of NADPH by LC-MS/MS analysis relative to control
Format: ADME
Set-up: scale not given: the % may be the effect or the level left
DETAILS: probe diclofenac, read-out: Activity
MEASURE: activity at 0.5 h, 30 µM (%)
Provide the reading as a plain figure in %.

Q: Query (compound): CCCCCCCC(=O)CCc1ccc(O)c(OC)c1 ; field requested: activity at 0.5 h, 30 µM
A: 46.9
